Source of measurements: PubChem BioAssay AID256

System: CD2F1 mice, L1210 leukemia ip, survival T/C
assay.info: NCI In Vivo Anticancer Drug Screen. Data for tumor model L1210 Leukemia (intraperitoneal) in CD2F1 (CDF1) mice
applied.conditions: endpoint: mean survival time; dose: 25.0 mg/kg/injection; schedule: Q01DX009 (ip); vehicle: saline with Tween-80; higher = longer survival
Inconclusive results and toxic doses are left out.
assay.metric: T/C

Query block: I'm curious: which T/C was measured for C/C=C\c1ccc(OCCOC(=O)Nc2ccc(C)c([N+](=O)[O-])c2)c(OC)c1 tested on CD2F1 mice, L1210 leukemia ip, survival T/C?
Result block: 92 % of control

Query block: Same again, this time with CC1CC(=O)C2CC(Cl)CCC2(C)C1C (centres undefined)
Result block: 97 % of control

Query block: Same again, this time with CCOc1ccc(-c2nnc(Nc3ccc(S(=O)(=O)N4CCCCC4)cc3)s2)cc1
Result block: 95 % of control

Query block: Same again, this time with NC(=S)N/N=C/c1cc(-c2cccc(N)c2)ccn1
Result block: 123 % of control

Query block: Same again, this time with OC(CC(O)(C(F)(F)F)C(F)(F)F)CC(O)(C(F)(F)F)C(F)(F)F
Result block: 90 % of control

Query block: Same again, this time with CC(=O)Oc1ccc2ccccc2c1
Result block: 100 % of control

Query block: Same again, this time with CCOc1ccccc1OC(=O)Nc1ccc(OC)cc1
Result block: 97 % of control

Query block: Same again, this time with COCC/C=C/CCl
Result block: 100 % of control

Query block: Same again, this time with Cc1ccc(C(=O)C=C(C(F)(F)F)C(F)(F)F)cc1
Result block: 98 % of control

Query block: Same again, this time with CCCCN1C(=O)C(=O)N(c2cc(C)c(C)cc2C)C1=O
Result block: 96 % of control

Query block: Same again, this time with COc1ccc2c(Nc3ccc(NS(C)(=O)=O)cc3)c3ccccc3nc2c1
Result block: 100 % of control

Query block: Same again, this time with CC1CN(C(=N)C#N)C(C)CN1C(=N)C#N (centres undefined)
Result block: 105 % of control

Query block: Same again, this time with CC(=O)Nc1ccc(/C=N/NC(=O)CNC(=O)Nc2cccc([N+](=O)[O-])c2)cc1
Result block: 91 % of control

Query block: Same again, this time with O=C(O)C1=CC=C(c2ccccc2)C(=O)C1
Result block: 98 % of control

Query block: Same again, this time with CCOc1c(Cl)cc(Cl)cc1C(c1ccc(Cl)cc1S(=O)(=O)O)c1cc(Cl)cc(Cl)c1OCC
Result block: 98 % of control

Query block: Same again, this time with Cc1ccc2c(ccc(/C=C/c3ccc(O)c4ncccc34)[n+]2C)c1
Result block: 122 % of control

Query block: Same again, this time with N#CC1=C(N)CCC1
Result block: 93 % of control

Query block: Same again, this time with [Cl][Sn]([c]1ccccc1)[c]1ccccc1
Result block: 106 % of control

Query block: Same again, this time with COC(=O)C(CCCCN=Cc1ccccc1O)N=Cc1ccccc1O.[Ni] (centres undefined)
Result block: 96 % of control

Query block: Same again, this time with Nc1c(Br)cc2c(c1Br)Cc1cc(Cl)ccc1-2
Result block: 107 % of control

Query block: Same again, this time with CCCCCCCCCCCCCCCCCC[N+]1(Cc2ccccc2)CCOCC1
Result block: 103 % of control

Query block: Same again, this time with CC(C)c1ccc(/C=C2/CCCCC2=O)cc1
Result block: 93 % of control

Query block: Same again, this time with Clc1ccc(COCc2ccccc2Cn2ccnc2)cc1
Result block: 98 % of control

Query block: Same again, this time with CC(C)C1=CC2=CCC3C(C)(C(=O)O)CCCC3(C)C2CC1 (centres undefined)
Result block: 103 % of control

###

System: CD2F1 mice, L1210 leukemia ip, survival T/C
assay.info: NCI In Vivo Anticancer Drug Screen. Data for tumor model L1210 Leukemia (intraperitoneal) in CD2F1 (CDF1) mice
applied.conditions: endpoint: mean survival time; dose: 200.0 mg/kg/injection; schedule: Q04DX002 (ip); vehicle: saline with Tween-80; higher = longer survival
Toxic doses and inconclusive results are not listed.
assay.metric: T/C

Query block: // returns reported T/C for input Nc1ccnc(SCCCOc2ccccc2)n1
Result block: 101 % of control

Query block: Same again, this time with CCOC(=O)NCC1CCC(CO)CC1 (configuration not stated)
Result block: 117 % of control

Query block: Same again, this time with CCOC(=O)C(C(=O)OCC)=C1CCC(=O)O1
Result block: 90 % of control

Query block: Same again, this time with O=S(=O)(Nc1ccc(Br)cc1)c1ccc(Cl)c(Cl)c1
Result block: 88 % of control

Query block: Same again, this time with C/C=C/c1cnc(N)nc1-c1ccccc1
Result block: 96 % of control

Query block: Same again, this time with COc1cc(C=C(c2ccc(N(C)C)cc2)c2ccc(N(C)C)cc2)c(OC)c2ccccc12
Result block: 87 % of control

Query block: Same again, this time with Cn1c(CS)nc2ccccc21
Result block: 93 % of control

Query block: Same again, this time with COc1c(C)c2c(c3c1CCC(C)(CCC(=O)O)O3)C(=O)OC2 (configuration not stated)
Result block: 108 % of control

Query block: Same again, this time with CC(=O)[C@@]12O[C@@H]1C[C@H]1[C@@H]3CCC4=CC(=O)CC[C@]4(C)[C@H]3CC[C@@]12C
Result block: 101 % of control

Query block: Same again, this time with COc1cccc(/C=C(\C(=O)O)c2cccc(OC)c2)c1
Result block: 104 % of control

Query block: Same again, this time with COc1ccc(NC(=O)Oc2cc(C(C)C)ccc2C)cc1
Result block: 98 % of control

Query block: Same again, this time with C1CC2(CCC13CS3)CS2 (configuration not stated)
Result block: 95 % of control

###

Test system: CD2F1 mice, L1210 leukemia ip, survival T/C
assay.info: NCI In Vivo Anticancer Drug Screen. Data for tumor model L1210 Leukemia (intraperitoneal) in CD2F1 (CDF1) mice
applied.conditions: endpoint: mean survival time; dose: 200.0 mg/kg/injection; schedule: Q01DX009 (ip); vehicle: saline with Tween-80; higher = longer survival
Toxic doses and inconclusive results are not listed.
assay.metric: T/C

Query block: I'm curious: which T/C was measured for O=C(O)/C(Br)=C/c1ccccc1 tested on CD2F1 mice, L1210 leukemia ip, survival T/C?
Result block: 90 % of control

Query block: Same again, this time with O=C(Nc1cc(C(F)(F)F)ccc1Cl)c1cccc(Cl)c1
Result block: 98 % of control

Query block: Same again, this time with Cn1c(-c2ccccc2)cc(=O)cc1-c1ccccc1
Result block: 94 % of control

Query block: Same again, this time with C/C(CC(C)C)=N\NC(=O)CNC(=O)c1ccccc1
Result block: 92 % of control

Query block: Same again, this time with CO[C@H]1/C=C/O[C@@]2(C)Oc3c(C)c(O)c4c(O)c(c(/C=N/N5C(C)CN(Cc6ccccc6)CC5C)c(O)c4c3C2=O)NC(=O)/C(C)=C\C=C\[C@H](C)[C@H](O)[C@@H](C)[C@@H](O)[C@@H](C)[C@H](OC(C)=O)[C@@H]1C (stereo not given in full)
Result block: 96 % of control

Query block: Same again, this time with Nc1nc(F)nc2c1ncn2C1OC(COP(=O)(O)O)C(O)C1O (stereo not given)
Result block: 100 % of control

Query block: Same again, this time with COc1cc(Cl)ccc1NC(=O)OCCOc1c(C(C)C)cccc1C(C)C
Result block: 89 % of control

Query block: Same again, this time with COc1cccc(C(=O)O)c1OC
Result block: 94 % of control

Query block: Same again, this time with CCOC(=O)/C(C#N)=C1/C=CC=CN1
Result block: 102 % of control

Query block: Same again, this time with O=c1oc2c(ccc3ccccc32)c(O)c1-c1cccc2ccccc12
Result block: 93 % of control

Query block: Same again, this time with Cc1c(C(=O)O)cc([N+](=O)[O-])cc1[N+](=O)[O-]
Result block: 100 % of control

Query block: Same again, this time with ON=C1c2c(ccc3ccccc23)-c2ccc3ccccc3c21
Result block: 95 % of control

Query block: Same again, this time with O=C(Nc1ccc(Br)cc1)c1ccccc1
Result block: 94 % of control

Query block: Same again, this time with COC(=O)c1ccccc1N=NNc1cccc(SC)c1
Result block: 97 % of control

Query block: Same again, this time with O=C1c2ccccc2C2c3ccccc3CCN12 (stereo not given)
Result block: 97 % of control

Query block: Same again, this time with O=Nc1c(O)sc2ccccc12
Result block: 100 % of control

Query block: Same again, this time with CC(=O)N/C(=C\c1ccccc1)C(N)=O
Result block: 95 % of control

Query block: Same again, this time with O=C(Nc1c(Cl)cccc1Cl)OCCOc1ccc(Br)cc1
Result block: 107 % of control

Query block: Same again, this time with COc1cc(NC(=O)CC(C)=O)cc(OC)c1OC
Result block: 100 % of control

Query block: Same again, this time with c1ccc2c(c1)ccc1c(C3CO3)cccc12 (stereo not given)
Result block: 101 % of control

Query block: Same again, this time with CC1=NN(c2cccc(S(=O)(=O)O)c2)C(=O)C1Cl (stereo not given)
Result block: 95 % of control

Query block: Same again, this time with Nc1ncnc2c1ncn2CCCN1C(=O)c2ccccc2C1=O
Result block: 95 % of control

Query block: Same again, this time with COc1c(O)ccc2c1CCCCC2=O
Result block: 100 % of control

Query block: Same again, this time with Cc1nc2ccc(Cl)cc2c(=O)o1
Result block: 103 % of control

Query block: Same again, this time with C=CCN(CC=C)CCNc1cc(C)nc(Nc2nc3ccc(Cl)cc3[nH]2)n1
Result block: 93 % of control

Query block: Same again, this time with COc1ccc(NC(=S)/C(=C(\[O-])c2ccc([N+](=O)[O-])cc2)[n+]2ccc(C(C)C)cc2)cc1
Result block: 97 % of control

Query block: Same again, this time with C(=Nc1ccccc1)c1ccccc1C=Nc1ccccc1
Result block: 92 % of control

Query block: Same again, this time with C=CCON(C)c1ccccc1
Result block: 90 % of control

Query block: Same again, this time with CCNc1nc(NC(C)C)nc(SC)n1
Result block: 117 % of control

Query block: Same again, this time with O=C(O)c1c2c(nc3ccccc13)Cc1ccccc1-2
Result block: 101 % of control

Query block: Same again, this time with Brc1ccc(Br)cc1
Result block: 100 % of control

Query block: Same again, this time with COC1OC2COCOC2C(OS(=O)(=O)c2ccc(C)cc2)C1OS(=O)(=O)c1ccc(C)cc1 (stereo not given)
Result block: 97 % of control

Query block: Same again, this time with CC(C)NC(=O)N(c1ccccc1)C(C)C
Result block: 90 % of control

Query block: Same again, this time with C/C(=N/O)c1cccc([N+](=O)[O-])c1
Result block: 98 % of control

Query block: Same again, this time with CC(C)=C(C)c1ccccc1
Result block: 103 % of control

Query block: Same again, this time with O=C(NC(=O)c1ccccc1)NS(=O)(=O)c1ccccc1
Result block: 109 % of control

Query block: Same again, this time with COC(=O)c1c[nH]c(=S)n1C(C)c1ccccc1 (stereo not given)
Result block: 106 % of control

Query block: Same again, this time with COC(=O)CCC1CCC(=O)O1 (stereo not given)
Result block: 105 % of control

Query block: Same again, this time with CC1(C(=O)O)CCCC2(C)C3=C(CCCC3)CCC12 (stereo not given)
Result block: 93 % of control

Query block: Same again, this time with COC(=O)C12C=CC(C1)n1c(=O)n(-c3ccccc3)c(=O)n12 (stereo not given)
Result block: 104 % of control

Query block: Same again, this time with Cc1cc2nc(CC(O)(C(F)(F)F)C(F)(F)F)oc2cc1C
Result block: 92 % of control

Query block: Same again, this time with CCc1ccccc1OS(=O)(=O)c1cccc([N+](=O)[O-])c1
Result block: 98 % of control

Query block: Same again, this time with C=C1C(=O)O[C@@H]2[C@H]1[C@@H](OC(C)=O)C[C@H](C)[C@@H]1CCC(=O)[C@@]21C
Result block: 89 % of control

Query block: Same again, this time with O=C(O)C(O)(c1ccccc1)C1CCCC1 (stereo not given)
Result block: 109 % of control

Query block: Same again, this time with CCN(CC)CCCNc1c2ccc(Cl)cc2nc2ccc(OC)nc12
Result block: 114 % of control

Query block: Same again, this time with CSC(=S)N(C)N
Result block: 103 % of control

Query block: Same again, this time with C=C(Cl)CSCCO
Result block: 104 % of control

Query block: Same again, this time with CC(=O)SCCNCCOCCC#N
Result block: 101 % of control

Query block: Same again, this time with Cc1c2ccccc2c(C)c2cnccc12
Result block: 97 % of control

Query block: Same again, this time with OC(c1ccccc1)C1(c2ccccc2)OCCO1 (stereo not given)
Result block: 90 % of control
